# run description: Static equilibrium solubility of HCQS in supercritical carbon dioxide (UV-vis spectrophotometer)
# Format: physicochemical
# particulars: thermodynamic from solid, scCO2, 338 K, 270 bar; read-out: Equilibrium solubility, S
Structures can show the parent of a compound that is named as a salt.
metric: solubility thermodynamic at 1 h (µg/mL)
Kindly provide the numeric value in µg/mL only, without the unit symbol.

Query block: Which solubility thermodynamic at 1 h is reported for this molecule? CCN(CCO)CCCC(C)Nc1ccnc2cc(Cl)ccc12 (stereo not shown) [HCQS, Hydroxychloroquine sulfate]
Result block: 426

====

# run description: Static equilibrium solubility of HCQS in supercritical carbon dioxide (UV-vis spectrophotometer)
# Assay type: physicochemical
# particulars: supercritical carbon dioxide (scCO2) in an equilibrium cell, thermodynamic from solid, scCO2, 318 K, 120 bar; read-out: Equilibrium solubility, S
Structures can show the parent of a compound that is named as a salt.
metric: solubility thermodynamic at 1 h

Query block: Look up solubility thermodynamic at 1 h for this molecule: CCN(CCO)CCCC(C)Nc1ccnc2cc(Cl)ccc12 (stereo not shown) [HCQS, Hydroxychloroquine sulfate]
Result block: 40.9 µg/mL
